Target: Muscarinic acetylcholine receptor M1 (Mus musculus)
pEC50: −log10 of the molar value.
Heads up, the class ranges for pEC50 are lower range: < 4; middle range: ≥ 4 and < 5; upper range: ≥ 5

Request: Lab note: which band did CSCc1noc(C2CN=CNC2)n1 (stereo unspecified) land in?
Result: middle range

Request: Lab note: which band did C#CCOC(=O)C1CN=C(N)NC1 (stereo unspecified) land in?
Result: lower range

Request: Lab note: which band did COC(=O)C1CCC(N)=NC1 (stereo unspecified) land in?
Result: middle range

Request: Lab note: which band did C#CCCOC(=O)C1CN=CNC1 (stereo unspecified) land in?
Result: lower range

Request: Lab note: which band did CCOC(=O)C1CN=CNC1 (stereo unspecified) land in?
Result: middle range

Further cases:
Request: Lab note: which band did Cc1noc(C2CN=CNC2)n1 (stereo unspecified) land in?
Result: upper range

Request: Lab note: which band did CC#CCOC(=O)C1CN=CNC1 (stereo unspecified) land in?
Result: middle range

Request: Lab note: which band did COC(=O)C1CN=C(N)NC1 (stereo unspecified) land in?
Result: lower range

Request: Lab note: which band did C#CCOC(=O)C1CN=CNC1 (stereo unspecified) land in?
Result: middle range

Request: Lab note: which band did O=C1CCCN1CC#CCN1CCCC1 [OXOTREMORINE] land in?
Result: upper range

Request: Lab note: which band did C[N+](C)(C)CC#CCN1CCCC1=O [OXOTREMORINE METHIODIDE] land in?
Result: upper range

Request: Lab note: which band did COC(=O)C1CN=CNC1 (stereo unspecified) land in?
Result: lower range

* * *

The following compounds have recorded EC50 on Muscarinic acetylcholine receptor M3 (Mus musculus).
Sequence (Q9ERZ3 whole entry): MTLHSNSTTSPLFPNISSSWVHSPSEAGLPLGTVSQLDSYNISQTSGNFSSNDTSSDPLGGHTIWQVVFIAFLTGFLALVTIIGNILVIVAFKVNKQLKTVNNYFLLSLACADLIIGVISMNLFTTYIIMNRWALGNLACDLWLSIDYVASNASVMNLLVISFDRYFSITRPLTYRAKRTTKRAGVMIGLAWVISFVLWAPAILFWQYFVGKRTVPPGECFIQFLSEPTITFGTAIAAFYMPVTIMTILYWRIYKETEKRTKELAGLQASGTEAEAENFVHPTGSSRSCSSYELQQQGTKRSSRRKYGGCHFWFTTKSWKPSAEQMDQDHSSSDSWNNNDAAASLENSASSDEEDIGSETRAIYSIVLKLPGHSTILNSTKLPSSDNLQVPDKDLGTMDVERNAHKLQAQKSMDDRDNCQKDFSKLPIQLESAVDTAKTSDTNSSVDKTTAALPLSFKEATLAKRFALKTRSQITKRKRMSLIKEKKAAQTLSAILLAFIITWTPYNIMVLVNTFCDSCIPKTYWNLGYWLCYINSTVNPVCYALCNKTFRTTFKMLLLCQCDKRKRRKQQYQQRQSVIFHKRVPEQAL
Answers are plain numbers, in µM.

Request: # assay system Muscarinic acetylcholine receptor M3 (Mus musculus): give EC50 of C#CCOC(=O)C1CCC(N)=NC1 (configuration not stated)
Result: 12

Request: # assay system Muscarinic acetylcholine receptor M3 (Mus musculus): give EC50 of CSCc1noc(C2CN=CNC2)n1 (configuration not stated)
Result: 5.8

Please state EC50 for every compound in the list that follows.
1. CCc1noc(C2CN=CNC2)n1 (configuration not stated)
2. CCOC(=O)C1CN=CNC1 (configuration not stated)
3. COCc1noc(C2CN=CNC2)n1 (configuration not stated)
4. C#CCOC(=O)C1CN=CNC1 (configuration not stated)
5. CCCCCCOc1nsnc1C1=CCCN(C)C1
6. COC(=O)C1CCC(N)=NC1 (configuration not stated)

Result:
1: 10; 2: 17; 3: 11; 4: 18; 5: 11; 6: 14

Please state EC50 for every compound in the list that follows.
1. Cc1noc(C2=CCCN(C)C2)n1
2. C[N+](C)(C)CCOC(N)=O.[Cl-]
3. COC(=O)C1CN=CNC1 (configuration not stated)
4. Cc1noc(C2CN=CNC2)n1 (configuration not stated)

Result:
1. 2.8
2. 9.9
3. 50
4. 1.1

* * *

Target: Muscarinic acetylcholine receptor M1 (Mus musculus, UniProt P12657)
Sequence (P12657 whole entry): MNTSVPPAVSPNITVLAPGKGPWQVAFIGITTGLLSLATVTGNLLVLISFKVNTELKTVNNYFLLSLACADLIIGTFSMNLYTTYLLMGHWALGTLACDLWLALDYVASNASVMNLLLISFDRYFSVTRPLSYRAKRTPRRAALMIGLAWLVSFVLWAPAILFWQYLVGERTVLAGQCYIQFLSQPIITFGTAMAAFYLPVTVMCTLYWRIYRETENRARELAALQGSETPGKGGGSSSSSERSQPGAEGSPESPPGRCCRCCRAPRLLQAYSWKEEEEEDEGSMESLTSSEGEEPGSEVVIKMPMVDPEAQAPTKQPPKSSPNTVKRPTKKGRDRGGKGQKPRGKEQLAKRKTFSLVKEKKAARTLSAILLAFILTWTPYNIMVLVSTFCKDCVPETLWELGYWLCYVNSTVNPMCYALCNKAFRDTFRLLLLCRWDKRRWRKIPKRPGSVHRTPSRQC
Experiment: biochemical
Kindly state pKi for each of the entries shown.
Answers are plain numbers, as −log10 of the molar value.

Please state pKi for every molecule in the list that follows.
1. Cc1noc(C2CN=CNC2)n1 (stereo unspecified)
2. CCCC#Cc1noc(C2CN=CNC2)n1 (stereo unspecified)
3. COC(=O)C1CN=CNC1 (stereo unspecified)

Result:
1: 7.68; 2: 6.86; 3: 6.44

Please state pKi for every molecule in the list that follows.
1. C#CCOC(=O)C1CN=CNC1 (stereo unspecified)
2. C#CCCOC(=O)C1CN=CNC1 (stereo unspecified)
3. CC#CCOC(=O)C1CN=CNC1 (stereo unspecified)

Result:
1: 7.38; 2: 7.51; 3: 7.85
